B1: PhoQ; a variant is named by its letters at X, in order, P23837 (parent)
chain: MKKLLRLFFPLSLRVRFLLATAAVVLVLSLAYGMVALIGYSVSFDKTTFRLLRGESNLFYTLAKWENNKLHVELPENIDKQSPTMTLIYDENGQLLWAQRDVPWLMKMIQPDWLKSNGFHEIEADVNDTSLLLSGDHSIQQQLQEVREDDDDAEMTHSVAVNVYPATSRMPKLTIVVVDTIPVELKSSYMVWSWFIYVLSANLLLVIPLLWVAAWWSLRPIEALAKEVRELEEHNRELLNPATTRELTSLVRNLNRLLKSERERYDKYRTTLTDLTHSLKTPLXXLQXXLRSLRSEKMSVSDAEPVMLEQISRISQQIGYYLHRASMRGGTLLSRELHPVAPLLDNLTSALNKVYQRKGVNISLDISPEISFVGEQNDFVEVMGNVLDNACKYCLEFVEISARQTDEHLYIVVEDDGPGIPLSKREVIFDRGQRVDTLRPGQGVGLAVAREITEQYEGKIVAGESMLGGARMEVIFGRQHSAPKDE

Variants of: B1
Assay: enrichment ratio after two sorts for PhoP signalling (ratio (wild type AVST 3.29)); higher = more functional
Details: with PhoP (E. coli)
The full ranking holds about 140,000 sequences; the median of “enrichment ratio after two sorts for PhoP signalling” is about 0, and the highest 2% start at about 11. The list comes from a sample in which the highest values are over-represented; it also holds close analogues and randomly drawn sequences.
// no (0) strictly below 10 in enrichment ratio; yes (1) otherwise

| Change | Class assignment |
| --- | --- |
| SELY | yes (1) |
| HMVR | no (0) |
| MIAQ | yes (1) |
| NEST | no (0) |
| HVKP | no (0) |
| HPVY | no (0) |
| AQIM | no (0) |
| FMAD | no (0) |
| GSHY | no (0) |
| SEST | yes (1) |
| ANCS | no (0) |
| TEST | yes (1) |
| MFAQ | no (0) |
| LTCV | no (0) |
| AVSG | yes (1) |
| SELS | yes (1) |
| TISN | yes (1) |
| STMQ | yes (1) |
| PIFW | no (0) |
| QPSN | no (0) |
| SLVT | no (0) |
| MITV | yes (1) |
| NRQL | no (0) |
| NSMQ | no (0) |
| ACSR | no (0) |
| WPQA | no (0) |
| YHIC | no (0) |
| FTST | no (0) |
| RNIE | no (0) |
| ADSG | no (0) |
| WWST | no (0) |
| RNRM | no (0) |
| WISN | no (0) |
| GPCS | no (0) |
| NEVT | no (0) |
